The origin of these recorded values is patent US11040958B2.

Assay: In vitro metabolic stability in human plasma
Assay type: in vitro ADME
Conditions: human, plasma; 37°C, compound 10 μM; read-out: Human plasma T1/2
measure.name: half-life at 10 µM (min)

| molecule | meas.value |
| --- | --- |
| CC(OC(=O)N(C)c1ncccc1CN)[n+]1cnn(C[C@](O)(c2ccc(F)cc2F)[C@@H](C)c2ncncc2F)c1 (some centres unmarked) | 26 |
| CC(OC(=O)SCCO)[n+]1cnn(C[C@](O)(c2ccc(F)cc2F)[C@@H](C)c2ncncc2F)c1 (some centres unmarked) | 7.75 |

* * *

Test: Pharmacokinetics after single gastrointestinal (gavage) administration in rats (plasma voriconazole)
Assay type: in vivo
Conditions: SD rats, 2.5 mg/kg (calculated as voriconazole)

| compound | Cmax |
| --- | --- |
| CC(OC(=O)N(C)c1ncccc1COC(=O)CN(C)C)[n+]1cnn(C[C@](O)(c2ccc(F)cc2F)[C@@H](C)c2ncncc2F)c1.Cl.Cl.[Cl-] (stereo partly shown) [QR16045] | 562 ± 158 ng/mL |
| CC(OC(=O)N(C)c1ncccc1COC(=O)CN)[n+]1cnn(C[C@](O)(c2ccc(F)cc2F)[C@@H](C)c2ncncc2F)c1.[Cl-] (stereo partly shown) [QR16001] | 789 ± 362 ng/mL |
| CC(OC(=O)N(C)c1ncccc1COC(=O)[C@@H](N)CCCNC(N)=O)[n+]1cnn(C[C@](O)(c2ccc(F)cc2F)[C@@H](C)c2ncncc2F)c1.[Cl-] (stereo partly shown) [QR16009] | 925 ± 121 ng/mL |
| CC(O)C(N)C(=O)OCc1cccnc1N(C)C(=O)OC(C)[n+]1cnn(CC(O)(c2ccc(F)cc2F)C(C)c2ncncc2F)c1.Cl.Cl.[Cl-] (stereo not shown) [QR16016] | 885 ± 344 ng/mL |
| CC(OC(=O)N(C)c1ncccc1COC(=O)[C@@H](N)CCCN)[n+]1cnn(C[C@](O)(c2ccc(F)cc2F)[C@@H](C)c2ncncc2F)c1.Cl.Cl.Cl.[Br-] (stereo partly shown) [QR16008] | 825 ± 256 ng/mL |
| CC(OC(=O)N(C)c1ncccc1COC(=O)C(N)CO)[n+]1cnn(CC(O)(c2ccc(F)cc2F)C(C)c2ncncc2F)c1.Cl.Cl.[Cl-] (stereo not shown) [QR16015] | 996 ± 365 ng/mL |
| CC(OC(=O)N(C)c1ncccc1COC(=O)[C@@H](N)CCCCN)[n+]1cnn(C[C@](O)(c2ccc(F)cc2F)[C@@H](C)c2ncncc2F)c1.[Cl-] (stereo partly shown) [QR16017] | 952 ± 421 ng/mL |

* * *

Test: Solubility test in deionized water (HPLC, external calibration)
Format: physicochemical
Details: 25 °C, thermodynamic from solid; deionized water, 25±2°C
Protocol: Experimental condition: 25±2° C. Dissolving medium: deionized water Experimental method: 1 mg voriconazole and appropriate amount of each compound were weighed, placed in 1 ml deionized water separately, shaken vigorously for 30 s every 5 mins for 30 mins.
Entries and their solubility at 30 min values follow.

| molecule | solubility at 30 min |
| --- | --- |
| CC(OC(=O)N(C)c1ncccc1CN)[n+]1cnn(C[C@](O)(c2ccc(F)cc2F)[C@@H](C)c2ncncc2F)c1 (stereo partly drawn) | > 50 mg/mL |
| CNCc1cccnc1N(C)C(=O)OC(C)[n+]1cnn(C[C@](O)(c2ccc(F)cc2F)[C@@H](C)c2ncncc2F)c1 (stereo partly drawn) | > 50 mg/mL |
| C[C@@H](c1ncncc1F)[C@](O)(Cn1cncn1)c1ccc(F)cc1F [Voriconazole, reference compound] | < 1 mg/mL |
| CC(OC(=O)N(C)c1ncccc1COC(=O)[C@@H](N)CCCN)[n+]1cnn(C[C@](O)(c2ccc(F)cc2F)[C@@H](C)c2ncncc2F)c1 (stereo partly drawn) | > 50 mg/mL |
| CC(OC(=O)OCCOP(=O)(O)O)[n+]1cnn(C[C@](O)(c2ccc(F)cc2F)[C@@H](C)c2ncncc2F)c1 (stereo partly drawn) | > 50 mg/mL |
| CNCC[C@H](N)C(=O)OCc1cccnc1N(C)C(=O)OC(C)[n+]1cnn(C[C@](O)(c2ccc(F)cc2F)[C@@H](C)c2ncncc2F)c1 (stereo partly drawn) | > 50 mg/mL |

* * *

Assay: Solid stability test (25°C, RH 60%, 30 days)
Assay type: physicochemical
Conditions: 25°C±2°C, relative humidity 60%±2%
Protocol: Experimental conditions: 25° C.±2° C., relative humidity 60%±2% Experimental instrument: Agilent 1260 HPLC; chamber for stability test Experimental method: each compound of the present disclosure was packaged (the inner packaging material was a penicillin bottle; the outer packaging material was a double-layer aluminum foil bag, and a desiccant was added inside and outside the package), placed in the chamber for stability test, at a temperature of 25° C.±2° C. and a relative humidity of 60%±2%. […]
measure.name: Content increase of total impurity (25° C., placed for 30 days) (%)

| molecule | meas.value |
| --- | --- |
| CC(OC(=O)NCC[C@H](N)C(=O)O)[n+]1cnn(C[C@](O)(c2ccc(F)cc2F)[C@@H](C)c2ncncc2F)c1.Cl.[Cl-] (stereo partly drawn) [QR16039] | 1.22 |
| CC(OC(=O)N(C)c1ccccc1COC(=O)[C@@H](N)CCCN)[n+]1cnn(C[C@](O)(c2ccc(F)cc2F)[C@@H](C)c2ncncc2F)c1.[Cl-] (stereo partly drawn) [QR16007] | 0.73 |
| CC(OC(=O)OCCCCCOP(=O)(O)O)[n+]1cnn(C[C@](O)(c2ccc(F)cc2F)[C@@H](C)c2ncncc2F)c1 (stereo partly drawn) [QR16025] | 1.57 |
| CC(OC(=O)N(C)c1ncccc1COC(=O)C[C@H](N)C(=O)O)[n+]1cnn(C[C@](O)(c2ccc(F)cc2F)[C@@H](C)c2ncncc2F)c1.[Cl-] (stereo partly drawn) [QR16003] | 1.37 |
| CNCc1cccnc1N(C)C(=O)OC(C)[n+]1cnn(C[C@](O)(c2ccc(F)cc2F)[C@@H](C)c2ncncc2F)c1 (stereo partly drawn) [QR16023] | 2.63 |
| CC(OC(=O)OCCOP(=O)(O)O)[n+]1cnn(C[C@](O)(c2ccc(F)cc2F)[C@@H](C)c2ncncc2F)c1 (stereo partly drawn) [QR16046] | 0.79 |

* * *

Assay: Pharmacokinetics after single gastrointestinal (gavage) administration in rats (plasma voriconazole)
Format: in vivo
Settings: SD rats, 2.5 mg/kg (calculated as voriconazole)
Description: Dosing volume for administration: 10 ml/kg Solvent medium for administration: except for the positive voriconazole group using CMC-Na, the other groups using normal saline Route of administration: gavage
The following molecules are shown together with reported AUClast values.

| molecule | AUClast [ng·h/mL] |
| --- | --- |
| CC(OC(=O)N(C)c1ncccc1COC(=O)[C@@H](N)CCCNC(N)=O)[n+]1cnn(C[C@](O)(c2ccc(F)cc2F)[C@@H](C)c2ncncc2F)c1.[Cl-] (some centres unmarked) [QR16009] | 7225 |
| CC(OC(=O)N(C)c1ncccc1COC(=O)[C@@H](N)CCCN)[n+]1cnn(C[C@](O)(c2ccc(F)cc2F)[C@@H](C)c2ncncc2F)c1.Cl.Cl.Cl.[Br-] (some centres unmarked) [QR16008] | 8745 |
| CC(OC(=O)N(C)c1ncccc1COC(=O)CN)[n+]1cnn(C[C@](O)(c2ccc(F)cc2F)[C@@H](C)c2ncncc2F)c1.[Cl-] (some centres unmarked) [QR16001] | 8562 |
| CC(OC(=O)N(C)c1ncccc1COC(=O)C(N)CO)[n+]1cnn(CC(O)(c2ccc(F)cc2F)C(C)c2ncncc2F)c1.Cl.Cl.[Cl-] (centres unmarked) [QR16015] | 8144 |
| CC(OC(=O)OCCOCCOP(=O)(O)O)[n+]1cnn(C[C@](O)(c2ccc(F)cc2F)[C@@H](C)c2ncncc2F)c1 (some centres unmarked) [QR16030] | 4324 |
| CC(O)C(N)C(=O)OCc1cccnc1N(C)C(=O)OC(C)[n+]1cnn(CC(O)(c2ccc(F)cc2F)C(C)c2ncncc2F)c1.Cl.Cl.[Cl-] (centres unmarked) [QR16016] | 8332 |
| CC(OC(=O)N(C)c1ncccc1COC(=O)CN(C)C)[n+]1cnn(C[C@](O)(c2ccc(F)cc2F)[C@@H](C)c2ncncc2F)c1.Cl.Cl.[Cl-] (some centres unmarked) [QR16045] | 7859 |
| CC(OC(=O)N(C)c1ncccc1COC(=O)[C@@H](N)CCCCN)[n+]1cnn(C[C@](O)(c2ccc(F)cc2F)[C@@H](C)c2ncncc2F)c1.[Cl-] (some centres unmarked) [QR16017] | 8695 |

* * *

Experiment: In vitro metabolic stability in rat intestinal S9
Format: in vitro ADME
Conditions: 37°C, S9 1 mg/mL, compound 10 μM, NADPH regeneration system
Rat intestinal S9 T1/2 listing for selected compounds.

| compound | Rat intestinal S9 T1/2, min |
| --- | --- |
| CC(O)C(N)C(=O)OCc1cccnc1N(C)C(=O)OC(C)[n+]1cnn(CC(O)(c2ccc(F)cc2F)C(C)c2ncncc2F)c1.Cl.Cl.[Cl-] (centres unmarked) | 19.62 |
| CC(OC(=O)N(C)c1ncccc1COC(=O)[C@@H](N)CCN)[n+]1cnn(C[C@](O)(c2ccc(F)cc2F)[C@@H](C)c2ncncc2F)c1.[Cl-] (some centres unmarked) | 26.52 |
| CC(OC(=O)N(C)c1ncccc1COC(=O)[C@@H](N)CCCN)[n+]1cnn(C[C@](O)(c2ccc(F)cc2F)[C@@H](C)c2ncncc2F)c1.Cl.Cl.Cl.[Br-] (some centres unmarked) | 32.52 |
| CC(OC(=O)N(C)c1ncccc1COC(=O)CN(C)C)[n+]1cnn(C[C@](O)(c2ccc(F)cc2F)[C@@H](C)c2ncncc2F)c1.Cl.Cl.[Cl-] (some centres unmarked) | 27.85 |
| CC(OC(=O)N(C)c1ncccc1COC(=O)[C@@H](N)CCCCN)[n+]1cnn(C[C@](O)(c2ccc(F)cc2F)[C@@H](C)c2ncncc2F)c1.[Cl-] (some centres unmarked) | 15.69 |
| CC(OC(=O)N(C)c1ncccc1COC(=O)CN)[n+]1cnn(C[C@](O)(c2ccc(F)cc2F)[C@@H](C)c2ncncc2F)c1.[Cl-] (some centres unmarked) | 10.15 |
| CN[C@@H](CSC(=O)OC(C)[n+]1cnn(C[C@](O)(c2ccc(F)cc2F)[C@@H](C)c2ncncc2F)c1)C(=O)O.Cl.[Cl-] (some centres unmarked) | 35.62 |
| CC(OC(=O)N(C)c1ncccc1COC(=O)C(N)CO)[n+]1cnn(CC(O)(c2ccc(F)cc2F)C(C)c2ncncc2F)c1.Cl.Cl.[Cl-] (centres unmarked) | 15.95 |
